Overview of recorded In vitro antifungal activity (IC50) against F. verticillioides (FVE) for various substances
# Tested on: Fusarium verticillioides (FVE; isolate MO33)
# Type: cell-based
Result type: In vitro antifungal activity (IC50) against F. verticillioides (FVE) (ppm)

Substance	Unit symbol	Quantitative readout
LB-9827-3A-11E4: LBNL variant generated through gene shuffling of the LB-9827-1 mature peptide coding sequence (LSKYGGECSRKHNTCTYKKGGKNQIVNCPTAANKRCKTDRHHCEYDEYHRRVDCQTPV; LB-9827-3A-11E4)	ppm	15
LB-9827-3B-25F2: LBNL variant generated through gene shuffling of the LB-9827-1 mature peptide coding sequence (LSKYGGECSREHNTCTYLKGGKNQVVACGSAANKKCKRDRHHCEYDDYHKTVDCQTPV; Synthetic peptide LB-9827-3B-25F2)	ppm	15
LB-9827-3B-21E10: LBNL variant generated through gene shuffling of the LB-9827-1 mature peptide coding sequence (LSKYGGECSRAHNTCTYRKGGKNQVVNCPSAANKKCKSDRHHCEYDEYHKRVDCQTPV; Synthetic peptide LB-9827-3B-21E10)	ppm	30
LB-9827-3B-25G5: LBNL variant generated through gene shuffling of the LB-9827-1 mature peptide coding sequence (LSKYGGECSRAHNTCTYRKGGKNQVVKCGTAANKKCKSDRHHCEYDDYHKRVDCQTPV; Synthetic peptide LB-9827-3B-25G5)	ppm	3.8
